src = PubChem BioAssay (NCATS)

target: Rap guanine nucleotide exchange factor 3 (Homo sapiens) (UniProt O95398); assay: Counterscreen qHTS for agonist of cAMP-regulated guanine nucleotide exchange factor 3 (EPAC1) (AID 1645889); details: EPAC1 Rap1B-BODIPY-GDP exchange, fluorescence; series mostly up to 154 µM; note: % of control where 0% means no effect; nearly all actives have a fitted effect of over 40% in size
Records with an inconclusive call do not appear. Activity calls are given as the source filed them. Calls come from the whole dose curve; as a rule, active = well fitted activation curve with a large enough effect; inconclusive = small, poorly fitted or top-dose-only effect, or another doubt; inactive = no such curve, though single readings can be large or run the other way.
quantityMeasured: activation

compound | assayedTarget | activation
c1ccc(CNc2c(-c3cccc(SC4CCCCC4)c3)nc3ccccn23)cc1 | Rap guanine nucleotide exchange factor 3 (Homo sapiens) (UniProt O95398) | 4.1% [at 30.8 µM] (inactive)
CCOC(=O)c1nc(C)nc(Sc2n[nH]c(-c3cc(Cl)cc(Cl)c3)n2)c1C | Rap guanine nucleotide exchange factor 3 (Homo sapiens) (UniProt O95398) | 19.4% [at 30.8 µM] (inactive)
COc1ccc2c(c1)c(=O)oc1c(C)c(OCc3cc(C(=O)O)oc3C)ccc12 | Rap guanine nucleotide exchange factor 3 (Homo sapiens) (UniProt O95398) | inactive
COc1ccc(/C=N/NC(=O)c2ccccc2O)cc1Cn1nnc2ccccc21 | Rap guanine nucleotide exchange factor 3 (Homo sapiens) (UniProt O95398) | inactive
OC(c1ccccc1)(c1nc(-c2cccc(C(F)(F)F)c2)cs1)C(F)(F)F (stereo not given) | Rap guanine nucleotide exchange factor 3 (Homo sapiens) (UniProt O95398) | inactive
CCOC(=O)C1CCCN(C(=O)c2cc(-c3ccco3)nc3ccccc23)C1 (stereo not given) | Rap guanine nucleotide exchange factor 3 (Homo sapiens) (UniProt O95398) | inactive
Cc1ccc(-c2nn(-c3ccccc3)cc2C=C2SC(=S)N(CCS(=O)(=O)O)C2=O)cc1 | Rap guanine nucleotide exchange factor 3 (Homo sapiens) (UniProt O95398) | 28% [at 30.8 µM] (inactive)
Cc1ccc2oc(=O)c(/C=C(\O)c3ccccc3)nc2c1 | Rap guanine nucleotide exchange factor 3 (Homo sapiens) (UniProt O95398) | 12.5% [at 30.8 µM] (inactive)

Count: 2. Required value per item: activation.
1. N#CC(Sc1ccccn1)c1ccc(Cl)cc1Cl (stereo not given)
2. COc1ccc(C(=O)c2oc3ccc(OC)cc3c2N)cc1

1: inactive; 2: inactive

----------
molecular target: Cytochrome P450 1A2 (Homo sapiens); test: p450-cyp1a2 (AID 410); details: recombinant CYP1A2, luciferin-ME demethylation, luminescence; series mostly up to 57 µM; note: potency is the fitted concentration of half-maximal effect
Records with an inconclusive call do not appear. Activity calls are given as the source filed them. The call rests on the fitted dose curve.
quantityMeasured: Potency

Please review the following examples before continuing.
smilesRepresentation | assayedTarget | endpointResult
Cn1c(=O)c(-c2ccc(Cl)cc2)nc2cncnc21 | Cytochrome P450 1A2 (Homo sapiens) | 25.1 nM (active)
N#CCCn1c(=O)c(-c2ccc(Cl)cc2)nc2cnc(N3CCOCC3)nc21 | Cytochrome P450 1A2 (Homo sapiens) | 15800 nM (active)
CN(C)C(=O)c1ccc(-c2ccc3ncnc(Nc4ccc(F)cc4)c3c2)cc1 | Cytochrome P450 1A2 (Homo sapiens) | 20000 nM (active)
CN(C)c1nc(-c2cccc(NS(C)(=O)=O)c2)nc2ccccc12 | Cytochrome P450 1A2 (Homo sapiens) | 501 nM (active)
COc1cccc(-c2cncnc2NCCN2CCOCC2)c1 | Cytochrome P450 1A2 (Homo sapiens) | 15800 nM (active)
O=C(c1cnccn1)N1CCC[C@@]2(CCN(c3cccc(-c4ccccc4)c3)C2)C1 | Cytochrome P450 1A2 (Homo sapiens) | 25100 nM (active)

Hey, can you go through the list below and give me Potency for every item?
1. COc1ccccc1-c1nc(Nc2ccncc2)c2ccccc2n1
2. CN1CCN(c2ncnc3ccc(-c4cccc(C#N)c4)cc23)CC1
3. COc1ccc2[nH]cc(CCNc3ncnc4ccc(-c5cccc(C#N)c5)cc34)c2c1
4. COCCn1c(=O)c(CCc2ccccc2)nc2cnc(N(C)C)nc21
5. CN(C)c1ccc(-c2cncnc2NCCc2cnc[nH]2)cc1

1. 316 nM (active)
2. 1260 nM (active)
3. 2510 nM (active)
4. 1260 nM (active)
5. 1260 nM (active)
